# System: MIP
# ASSAY PROCEDURE: Antiproliferative activity in human tumor cell lines: MIP (colon)
# Format: cell-based
# EXPERIMENTAL CONDITIONS: PROTOCOL 1 and PROTOCOL 2, 48 hours
Structures can show the parent of a compound that is named as a salt.
MEASURE: IC50

Worked examples, 3 compounds total:
INSERT INTO assay_data (compound, data_value) VALUES
  ('CCCNCC(=O)Nc1c(Cl)cc2c(c1O)C(=O)C1=C(O)[C@]3(O)C(=O)C(C(N)=O)=C(O)[C@@H](N(C)C)C3CC1C2 (stereo partly drawn) [Example 5, dihydrochloride]', '10 µg/mL'),
  ('CC(C(=O)Nc1c(Cl)cc2c(c1O)C(=O)C1=C(O)[C@]3(O)C(=O)C(C(N)=O)=C(O)[C@@H](N(C)C)C3CC1C2)N1CCCCC1 (stereo partly drawn) [Example 14, dihydrochloride]', '< 0.16 µg/mL'),
  ('CN(C)[C@@H]1C(O)=C(C(N)=O)C(=O)[C@@]2(O)C(O)=C3C(=O)c4c(cc(Cl)c(NC(=O)CNCC5CC5)c4O)CC3CC12 (stereo partly drawn) [Example 8, dihydrochloride]', '3.8 µg/mL');

-- ask Sample CCC(C(=O)Nc1c(Cl)cc2c(c1O)C(=O)C1=C(O)[C@]3(O)C(=O)C(C(N)=O)=C(O)[C@@H](N(C)C)C3CC1C2)N1CCCC1 (stereo partly drawn) [Example 19, dihydrochloride] — what was its IC50?
-- reply 3 µg/mL

-- ask Similarly, CCCCNCC(=O)Nc1c(Cl)cc2c(c1O)C(=O)C1=C(O)[C@]3(O)C(=O)C(C(N)=O)=C(O)[C@@H](N(C)C)C3CC1C2 (stereo partly drawn) [Example 4, dihydrochloride] ?
-- reply 3.1 µg/mL

-- ask Would you mind doing CN(C)c1c(Cl)cc(O)c2c1CC1CC3[C@H](N(C)C)C(O)=C(C(N)=O)C(=O)[C@@]3(O)C(O)=C1C2=O (stereo partly drawn) as well?
-- reply 2.6 µg/mL

* * *

# System: HTB 161
# ASSAY PROCEDURE: Antiproliferative activity in human tumor cell lines: HTB 161 (ovarian)
# Type: cell-based
# EXPERIMENTAL CONDITIONS: HTB 161 ovarian tumor, PROTOCOL 1 and PROTOCOL 2, 48 hours
Structures can show the parent of a compound that is named as a salt.
// returns -1 unless IC50 is strictly below 1 µg/mL, in which case 1

Previously resolved entries follow.
INSERT INTO results (compound, classification) VALUES
  ('CN(C)[C@@H]1C(O)=C(C(N)=O)C(=O)[C@@]2(O)C(O)=C3C(=O)c4c(cc(Cl)c(NC(=O)CN5CCCCC5)c4O)CC3CC12 (stereo partly shown) [Example 10, dihydrochloride]', 1),
  ('CN(C)[C@@H]1C(O)=C(C(N)=O)C(=O)[C@@]2(O)C(O)=C3C(=O)c4c(cc(Cl)c(NC(=O)CN5CCCC5)c4O)CC3CC12 (stereo partly shown) [Example 9, dihydrochloride]', -1),
  ('CN(C)c1c(Cl)cc(O)c2c1CC1CC3[C@H](N(C)C)C(O)=C(C(N)=O)C(=O)[C@@]3(O)C(O)=C1C2=O (stereo partly shown) [Example 11]', 1);

-- ask Is it true that IC50 reported for CNCC(=O)Nc1c(Cl)cc2c(c1O)C(=O)C1=C(O)[C@]3(O)C(=O)C(C(N)=O)=C(O)[C@@H](N(C)C)C3CC1C2 (stereo partly shown) [Example 7, dihydrochloride] is less than 1 µg/mL?
-- reply -1

-- ask Entry CCCCNCC(=O)Nc1c(Cl)cc2c(c1O)C(=O)C1=C(O)[C@]3(O)C(=O)C(C(N)=O)=C(O)[C@@H](N(C)C)C3CC1C2 (stereo partly shown) [Example 4, dihydrochloride] please
-- reply -1

The reported measurements were obtained from patent US5567693A.
